Provenance of the data: ChEMBL document CHEMBL1201862

system: K562; assay: NCI tumour cell line growth inhibition, 48 h
The source made the active and inactive calls. No stated cut-off is given here; in the data, active = GI50 up to about 1.1 µM and inactive = higher.
Pick one and only one: active, inactive

>  <compound>
CCOc1cccc2cccnc12

>  <assigned_category>
inactive

$$$$
>  <compound>
COc1ccc2c(c1)CCN1C3=C(CCC3)C(=O)C[C@@H]21

>  <assigned_category>
inactive

$$$$
>  <compound>
C[C@H](C(O)CC(=O)C(C)(C)O)[C@H]1CC[C@@]2(C)[C@@H]3CC[C@H]4C(C)(C)[C@@H](OC5OC(COC6OC(CO)C(O)C(O)C6O)C(O)C(O)C5O)CC[C@]4(C)C3=CC[C@]12C (some centres not stated)

>  <assigned_category>
inactive

$$$$

Lab log entry: O=C1NC2c3c(I)sc(I)c3C(O)C2O1 (configuration not stated) — outcome as called in the assay?
inactive

Lab log entry: N/N=C1/C2CN3CCN(C2)CC1(c1ccc([N+](=O)[O-])cc1)C3 — outcome as called in the assay?
inactive

Lab log entry: CSC1=NC=CCN1C — outcome as called in the assay?
inactive

Lab log entry: CCCNc1ncnc2c1ncn2C — outcome as called in the assay?
inactive

----------
test system: NCI-H226; experiment: NCI tumour cell line growth inhibition, 48 h
Activity calls are given as the source filed them. Rule as the data show it: active = GI50 up to about 1.1 µM and inactive = higher.
This section presents compounds with their documented GI50 values.

Examples with their reported GI50 follow.
>  <smiles_input>
Cn1c(=O)[nH]c2c(c1=O)C(=O)CN2

>  <result>
36.2 µM (inactive)

$$$$
>  <smiles_input>
CN1C/C(=C\C=C\c2ccccc2)C(=O)/C(=C/C=C/c2ccccc2)C1

>  <result>
> 100 µM (inactive)

$$$$
>  <smiles_input>
O=C1C[C@@H]2[C@@H](c3ccccc3)[C@@H]3C(=O)c4ccccc4NC(=O)[C@H]3[C@]2(O)c2ccccc2N1

>  <result>
> 100 µM (inactive)

$$$$

Recorded GI50 of O=[N+]([O-])c1ccc(-c2cc(O)c3nc4ccccc4n3c2)cc1 , please.
> 100 µM (inactive)

----------
system: CCRF-CEM; experiment: NCI tumour cell line growth inhibition, 48 h
Calls of active or inactive are those of the source. Cut-off read from the data, not from the text of the source: active = GI50 up to about 1.1 µM and inactive = higher.
Pick one and only one: YES for active, NO for inactive

>  <molecule>
O=C(c1ccccc1)c1nnc(C(=O)c2ccccc2)nn1

>  <measured_target>
CCRF-CEM

>  <assigned_category>
NO

$$$$
>  <molecule>
COc1ccc(C#CC(=O)O)c(OC)c1

>  <measured_target>
CCRF-CEM

>  <assigned_category>
NO

$$$$
>  <molecule>
O=C(Nc1ccn(C2CC(I)C(COC(c3ccccc3)(c3ccccc3)c3ccccc3)O2)c(=O)n1)c1ccccc1 (configuration not stated)

>  <measured_target>
CCRF-CEM

>  <assigned_category>
NO

$$$$

Lab log entry: N=C(N)N/N=C(\c1ccc(F)cc1)c1ccc(C(F)(F)F)cc1 — outcome as called in the assay?
YES

Lab log entry: CNC(=O)NC(CCCCNC(=O)OCc1ccccc1)C(=O)OCc1ccccc1 (configuration not stated) — outcome as called in the assay?
NO

Lab log entry: CCOC(=O)c1nnsc1N/N=C\c1ccc([N+](=O)[O-])cc1 — outcome as called in the assay?
NO

Lab log entry: O=C(NNCC(O)COc1ccccc1)c1ccccc1 (configuration not stated) — outcome as called in the assay?
NO

Lab log entry: C1OCN2c3nonc3N3COCN4c5nonc5N1C2C43 (configuration not stated) — outcome as called in the assay?
NO

Lab log entry: COc1cc([C@@H]2c3cc4c(cc3[C@@H](NCc3ccccc3F)C3COC(=O)[C@@H]32)OCO4)cc(OC)c1O (some centres not stated) — outcome as called in the assay?
NO

Lab log entry: CCC(C)[C@H](NC(=O)[C@H](Cc1ccccc1)NC(=O)N(CC)c1ccccc1)C(=O)N[C@@H](CC(C)C)C(=O)OC (some centres not stated) — outcome as called in the assay?
NO

Lab log entry: CCCCCCCCCCCCCCCCOP(=O)(O)Oc1ccc(/C=C\c2ccc(OP(=O)(O)OCCCCCCCCCCCCCCCC)cc2)cc1 — outcome as called in the assay?
NO

Lab log entry: Cc1ccc(Nc2nc(N)nc3c2ncn3C2OC(CO)C(O)C2O)cc1 (configuration not stated) — outcome as called in the assay?
NO

Lab log entry: COc1ccc(-c2cc(O)c3cc(OC)ccc3n2)cc1 — outcome as called in the assay?
NO

Lab log entry: COc1nc2c(c(=O)n1C)N=C(c1ccc(Cl)cc1)CC(c1ccccc1)N2 (configuration not stated) — outcome as called in the assay?
NO

Lab log entry: O=C1CCC2CCc3cccc4oc1c2c34 (configuration not stated) — outcome as called in the assay?
NO

Lab log entry: COc1cc2ccc(=O)oc2cc1O [SCOPOLETIN] — outcome as called in the assay?
NO

Lab log entry: CC(=O)Nc1ccc(N2C(=O)/C(=C\c3cccc(Oc4ccccc4)c3)S(=O)(=O)C2c2ccccc2)cc1 (configuration not stated) — outcome as called in the assay?
NO

Lab log entry: CC12CCC(=O)N1c1cncnc1N2 (configuration not stated) — outcome as called in the assay?
NO

Lab log entry: COC(=O)C1=CC2CCCC1(O)C(C(C)=O)C2 (configuration not stated) — outcome as called in the assay?
NO

Lab log entry: COCCCNc1c2ccccc2nc2ccccc12 — outcome as called in the assay?
NO

Lab log entry: O=C1NCCS(=O)(=O)N2CCC[C@@H]12 — outcome as called in the assay?
NO

Lab log entry: Cc1cc(C)c(/C=N/NS(=O)(=O)c2ccccc2)c(C)c1 — outcome as called in the assay?
NO
